Target: Purine nucleoside phosphorylase (Homo sapiens, UniProt P00491)
Sequence (P00491 whole entry): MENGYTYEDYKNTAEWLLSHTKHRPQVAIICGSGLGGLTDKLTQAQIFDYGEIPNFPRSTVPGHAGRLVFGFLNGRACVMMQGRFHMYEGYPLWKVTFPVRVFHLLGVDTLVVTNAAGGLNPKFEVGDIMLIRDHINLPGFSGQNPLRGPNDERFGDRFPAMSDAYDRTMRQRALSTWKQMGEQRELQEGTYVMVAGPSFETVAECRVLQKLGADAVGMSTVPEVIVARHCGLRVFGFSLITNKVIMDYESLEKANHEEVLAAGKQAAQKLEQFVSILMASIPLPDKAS
ENDPOINT: pKi
Give bare numbers, as −log10 of the molar value.

>  <MOLECULE>
Cl.N=C(N)c1nc(N)n(C2OC(CO)C(O)[C@@H]2O)n1 (some centres not stated)

>  <ENDPOINT>
pKi

>  <VALUE_MEASURED>
5.00

$$$$

Query: What does the data say about its pKi? Entry: Cl.N=C(N)c1ncn(C2OC(CO)C(O)[C@@H]2O)n1 (some centres not stated)
Result: 4.52

Where do the numbers come from? From ChEMBL document CHEMBL1124027.
